Attribution: PubChem BioAssay (NCI)

# System: NCI-H322M lung
# Experiment summary: NCI-60 one-dose screen, 48 h
# Measurement context: 10 µM unless noted
The panel holds about 83,000 compounds, 20% with a hit somewhere; the sample as a whole holds those more often. Active and inactive are the calls of the source. Rule for the calls: active = growth percent below 10; inactive = the rest.
The reply should be one of these categories: label 1 for active, label 0 for inactive

Example cases with answers are listed next.
{"Molecule": "CCCCCCCCCC[N+](C)(C)N", "Class name": "label 0"}
{"Molecule": "COC(=O)c1ccc2[nH]c(O)c(C(=Nc3ccc(N(C)C(=O)CN4CCN(C)CC4)cc3)c3ccc(N)cc3)c2c1", "Class name": "label 0"}
{"Molecule": "COc1cc2c(c3c1c(=O)c1cccc(F)c1n3C)C=CC(C)(C)O2", "Class name": "label 0"}
{"Molecule": "COC(=O)[C@H](Cc1cn(C)cn1)NC(=O)[C@H](Cc1c[nH]c2ccccc12)NC(=O)Nc1cc(C(F)(F)F)cc(C(F)(F)F)c1", "Class name": "label 1"}
{"Molecule": "Nc1nc2c(c3cnccc13)C(c1cccc(Cl)c1)Cc1cnccc1-2 (stereo not given)", "Class name": "label 0"}

Data request: Per the assay record, what outcome was assigned to CCS(=O)(=O)OCCO[C@H]1Cc2cc3ccc(=O)oc3cc2OC1(C)C ?
Data returned: label 0

Data request: Per the assay record, what outcome was assigned to O=[N+]([O-])c1ccc(-c2ncc(-c3ccc(O)cc3O)[nH]2)cc1 ?
Data returned: label 0

====

# System: UACC-257 melanoma
# Experiment summary: NCI-60 one-dose screen, 48 h
# Measurement context: 10 µM unless noted
This is part of a sample that, as a whole, favours compounds with a hit. Of some 83,000 tested, about 20% had one in any assay. Active and inactive are the calls of the source. How the source made its calls: active means growth percent below 10; inactive means the rest.
The reply should be one of these categories: active, inactive

Example cases with answers are listed next.
{"Compound": "CC(=O)/C(=C\\c1c(-c2ccccc2)[nH]c2ccccc12)S(=O)(=O)c1ccccc1", "Class name": "active"}
{"Compound": "CCCCCCCCCC[N+](C)(C)N", "Class name": "inactive"}
{"Compound": "Nc1nc2c(c3cnccc13)C(c1cccc(Br)c1)Cc1cnccc1-2 (stereo not given)", "Class name": "inactive"}
{"Compound": "O=C(/C=C1\\C(=O)N(Cc2ccc([N+](=O)[O-])cc2)c2ccccc21)c1ccc(OCCN2CCCC2)cc1", "Class name": "inactive"}

Data request: Per the assay record, what outcome was assigned to Cc1nc(NC(=O)NC2CCCCC2)sc1C(=O)NN ?
Data returned: inactive

Data request: Per the assay record, what outcome was assigned to CCOC(=O)NNc1[nH]c(-c2ccc(OC)cc2)cc1C#N ?
Data returned: inactive

Data request: Per the assay record, what outcome was assigned to COc1ccc(Cn2cc3c(c2-c2ccc(OC)cc2)CCc2cnoc2-3)cc1 ?
Data returned: inactive

====

Catalogue of compounds with associated growth
# Test system: SF-295 CNS
# Experiment summary: NCI-60 one-dose screen, 48 h (100 = growth as untreated, 0 = no growth, -100 = all killed)
# Measurement context: 10 µM unless noted
This is part of a sample that, as a whole, favours compounds with a hit. Of some 83,000 tested, about 20% had one in any assay. Active and inactive are the calls of the source. The calls were made as follows: active = growth percent below 10; inactive = the rest.

Worked cases, growth given:
{"Compound": "COc1ccc(-c2nc(Nc3nc4ccccc4[nH]3)nc(N)c2C#N)cc1", "Meas value": "114% (inactive)"}
{"Compound": "CC(=O)Nc1nc(C)c(C(=O)N/N=C/N2CCCCC2)s1", "Meas value": "127% (inactive)"}
{"Compound": "Cc1ccc(C(=O)Nc2ccc(CN3CCN(C)CC3)c(C(F)(F)F)c2)cc1C#Cc1cnc(N)c2ccc(C#N)cc12", "Meas value": "61.8% (inactive)"}
{"Compound": "COc1ccc(C(=O)NCCNc2nccc(-c3c(-c4ccc(F)cc4)nc4sccn34)n2)cc1", "Meas value": "61.6% (inactive)"}
{"Compound": "COC1=C(OC)C(=O)c2ccccc2C1=O", "Meas value": "108% (inactive)"}

Data request: Look up growth: Nc1nc2c(c3cnccc13)C(c1cccc(Cl)c1)Cc1cnccc1-2 (stereo unspecified)
Data returned: 8.34% (active)

Data request: Look up growth: Clc1ccc(N/N=C/c2ccccn2)nc1
Data returned: 1.61% (active)

Data request: Look up growth: CN(C)CCOC(=O)C(C)(C)C
Data returned: 108% (inactive)

Data request: Look up growth: CCCCN(CCCC)c1ccc(C(=O)O)cc1
Data returned: 97.7% (inactive)

Data request: Look up growth: O=C(Nc1ccc(-n2cc(-c3ccncc3)c(-c3ccc(Cl)c(O)c3)n2)cc1)c1cc(C(F)(F)F)cc(C(F)(F)F)c1
Data returned: 25% (inactive)

Data request: Look up growth: COc1ccc(Cn2cc3c(c2-c2ccc(O)cc2)CCc2cnoc2-3)cc1
Data returned: -24.6% (active)

====

# Tested on: SF-539 CNS
# Experiment summary: NCI-60 one-dose screen, 48 h (100 = growth as untreated, 0 = no growth, -100 = all killed)
# Measurement context: 10 µM unless noted
This is part of a sample that, as a whole, favours compounds with a hit. Of some 83,000 tested, about 20% had one in any assay.
Measure name: growth (%)
Just the number in %, nothing appended.

{"Compound": "CCCCCCCCC/C(=N\\NC(=O)c1ccncc1)c1ccc(O)c(O)c1O", "growth, %": 7.62}

Query compound follows.
Data request: Look up growth: CC(O)CN(CCO)CCN(CCO)CC(C)O (stereo not given)
Data returned: 94.8

====

Catalogue of compounds with associated growth
# System: EKVX NSCLC
# Experiment summary: NCI-60 one-dose screen, 48 h (100 = growth as untreated, 0 = no growth, -100 = all killed)
# Measurement context: 10 µM
The panel holds about 83,000 compounds, 20% with a hit somewhere; the sample as a whole holds those more often. Active and inactive are the calls of the source. Rule for the calls: active = growth percent below 10; inactive = the rest.

{"Compound": "Cc1ccc2c(O)c(O)cc(NC(C)CCCN)c2n1 (stereo unspecified)", "Tested on": "EKVX NSCLC", "growth": "78% (inactive)"}

Data request: Look up growth: COc1cc2oc(-c3ccc(NC(=O)c4ccccc4)cc3)cc(=O)c2c(OC)c1OC
Data returned: 90.8% (inactive)

Data request: Look up growth: N=C(N)N=Nc1ccc(NN=C(N)N)cc1
Data returned: 36.3% (inactive)

Data request: Look up growth: COC(=O)c1ccc2[nH]c(O)c(C(=Nc3ccc(N(C)C(=O)CN4CCN(C)CC4)cc3)c3ccc4c(c3)OCO4)c2c1
Data returned: 37.3% (inactive)

Data request: Look up growth: COC(c1ccccc1)C(Br)C(=O)c1ccccc1 (stereo unspecified)
Data returned: 103% (inactive)

Data request: Look up growth: COc1cccc(NC(=O)NCCNc2nccc(-c3c(-c4ccc(F)cc4)nc4sccn34)n2)c1
Data returned: 98.6% (inactive)

Data request: Look up growth: CCOC(=O)c1c(C)oc2ncnc(Nc3ccc(NC(=O)Nc4ccc(CC)cc4)cc3)c12
Data returned: 102% (inactive)

Data request: Look up growth: O=C1Nc2c(c(=O)n(-c3ccccc3)c3ccccc23)C(c2ccc(Cl)cc2)N1 (stereo unspecified)
Data returned: 86.8% (inactive)

Data request: Look up growth: COc1cc(-c2nc3c(c(C)nc4c3nnn4-c3ccccc3)c(=O)o2)cc(OC)c1OC
Data returned: 115% (inactive)

Data request: Look up growth: CCC(C)C1NC(=O)C(CC(C)C)NC(=O)C(C)NC(=O)C(C(C)C)NC(=O)C(CCCCN)NC(=O)C(CC(C)C)NC(=O)C(C(C)C)NC(=O)[C@H](C)NC(=O)C(C(C)CC)NC(=O)C(CCCN=C(N)N)NC(=O)C(CCCCN)NC(=O)C(CCCN=C(N)N)NC(=O)C(CCCCN)NC(=O)C([C@H](C)CC)NC(=O)C(CCCCN)NC1=O (stereo partly specified)
Data returned: 15.3% (inactive)

Data request: Look up growth: CCOc1ccccc1/C=N\N=C(N/N=C/c1ccccc1OCC)N/N=C/c1ccccc1OCC
Data returned: 14.2% (inactive)

Data request: Look up growth: O=C(O)CC1Cc2ccccc2C1C(=O)O (stereo unspecified)
Data returned: 105% (inactive)

Data request: Look up growth: CCOC(=O)c1cc(-c2ccc(OC)cc2)[nH]c1NNC(=O)CCOC
Data returned: 101% (inactive)

Data request: Look up growth: CC(=O)OC1CC2C3CCC4C[C@@H](NC(=O)C=C(C)C)CC[C@]4(C)C3CC[C@]2(C)[C@H]1C(C)N(C)C (stereo partly specified)
Data returned: 29.3% (inactive)

Data request: Look up growth: Oc1ccc(N=Nc2ccc(N=Nc3ccccc3)cc2)cc1
Data returned: 39.8% (inactive)

Data request: Look up growth: CC([C@H]1CCC2C3CCC4C[C@@H](N)CC[C@]4(C)C3CC[C@@]21C)N(C)C (stereo partly specified)
Data returned: 69.4% (inactive)
